Source: paper PMC5540273

Test system: MAPKAPK2;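 note: KINOMEscan kinase panel screen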
conditions: concentration: 1 μM, replicates: in singlicate; n = 1
Kindly supply the reported %Inh values for the records listed here.
Entry rule: numbers only, all in %.

The recorded %Inh for O=C(Nc1ccc2c(c1)OCO2)NC1CCN(c2ccnc(NCc3ccc(F)cc3)n2)CC1 [GSK1379859] is 13

Lab note: measured %Inh of COc1ccc(Nc2nccc(N3CCC(NS(=O)(=O)c4ccc(NC(C)=O)cc4)C3)n2)cc1 (stereo not shown) [GSK1379729] was 49

Entry CCc1ccc(-c2ccc3c(c2)-c2nn(C)cc2S(=O)(=O)N3C)cc1 ; %Inh = 0

// %Inh value for COc1cc2nccc(Nc3cccc(Oc4ccccc4)c3)c2cc1OC.Cl [GW284543] : 15
